Taken from ChEMBL document CHEMBL2203238.

Measurement target: Non-receptor tyrosine-protein kinase TYK2 (Homo sapiens)
Sequence (P29597 whole entry): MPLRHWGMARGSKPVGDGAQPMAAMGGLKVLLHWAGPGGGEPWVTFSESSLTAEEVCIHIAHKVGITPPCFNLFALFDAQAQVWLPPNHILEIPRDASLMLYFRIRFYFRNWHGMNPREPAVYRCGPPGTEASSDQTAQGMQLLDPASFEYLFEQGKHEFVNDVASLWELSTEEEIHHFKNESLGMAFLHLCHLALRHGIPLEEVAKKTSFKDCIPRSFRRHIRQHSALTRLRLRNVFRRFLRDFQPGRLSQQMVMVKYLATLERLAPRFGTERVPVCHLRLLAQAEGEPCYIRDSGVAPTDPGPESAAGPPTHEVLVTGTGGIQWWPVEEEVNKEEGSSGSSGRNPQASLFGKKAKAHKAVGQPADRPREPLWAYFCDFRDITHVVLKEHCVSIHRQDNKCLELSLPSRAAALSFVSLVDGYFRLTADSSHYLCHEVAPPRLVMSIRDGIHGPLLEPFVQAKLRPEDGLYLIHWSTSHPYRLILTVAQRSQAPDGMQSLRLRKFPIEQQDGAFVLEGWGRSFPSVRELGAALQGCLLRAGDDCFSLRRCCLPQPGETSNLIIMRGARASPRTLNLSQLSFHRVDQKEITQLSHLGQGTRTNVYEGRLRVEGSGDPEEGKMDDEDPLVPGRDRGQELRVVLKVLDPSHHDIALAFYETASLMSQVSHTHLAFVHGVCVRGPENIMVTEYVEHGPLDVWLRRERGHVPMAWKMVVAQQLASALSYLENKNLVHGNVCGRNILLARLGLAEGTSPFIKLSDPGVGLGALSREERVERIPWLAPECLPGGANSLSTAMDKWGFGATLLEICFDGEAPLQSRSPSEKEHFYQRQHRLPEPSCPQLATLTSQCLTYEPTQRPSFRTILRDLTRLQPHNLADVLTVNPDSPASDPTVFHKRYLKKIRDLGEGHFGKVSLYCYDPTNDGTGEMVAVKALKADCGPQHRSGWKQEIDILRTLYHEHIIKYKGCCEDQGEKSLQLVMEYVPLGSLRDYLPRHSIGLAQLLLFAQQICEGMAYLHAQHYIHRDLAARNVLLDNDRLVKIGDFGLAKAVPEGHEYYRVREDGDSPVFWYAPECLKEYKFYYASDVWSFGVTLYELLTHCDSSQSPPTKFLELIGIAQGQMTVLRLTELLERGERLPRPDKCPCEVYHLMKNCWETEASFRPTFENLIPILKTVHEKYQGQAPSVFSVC
Assay procedure: Inhibition of recombinant TYK2 after 1 hr by scintillation counter analysis in presence of gamma-[33P]ATP
pKi: −log10 of the molar value.
Endpoint label: pKi

Task: Name the reported pKi value associated with the compound CC(C)(C)Nc1c(Nc2ccnc(Nc3ccc(-c4ccncc4)cc3)n2)c(=O)c1=O
Output: < 5.72

---

Measurement target: Tyrosine-protein kinase JAK2 (Homo sapiens)
Sequence (O60674 whole entry): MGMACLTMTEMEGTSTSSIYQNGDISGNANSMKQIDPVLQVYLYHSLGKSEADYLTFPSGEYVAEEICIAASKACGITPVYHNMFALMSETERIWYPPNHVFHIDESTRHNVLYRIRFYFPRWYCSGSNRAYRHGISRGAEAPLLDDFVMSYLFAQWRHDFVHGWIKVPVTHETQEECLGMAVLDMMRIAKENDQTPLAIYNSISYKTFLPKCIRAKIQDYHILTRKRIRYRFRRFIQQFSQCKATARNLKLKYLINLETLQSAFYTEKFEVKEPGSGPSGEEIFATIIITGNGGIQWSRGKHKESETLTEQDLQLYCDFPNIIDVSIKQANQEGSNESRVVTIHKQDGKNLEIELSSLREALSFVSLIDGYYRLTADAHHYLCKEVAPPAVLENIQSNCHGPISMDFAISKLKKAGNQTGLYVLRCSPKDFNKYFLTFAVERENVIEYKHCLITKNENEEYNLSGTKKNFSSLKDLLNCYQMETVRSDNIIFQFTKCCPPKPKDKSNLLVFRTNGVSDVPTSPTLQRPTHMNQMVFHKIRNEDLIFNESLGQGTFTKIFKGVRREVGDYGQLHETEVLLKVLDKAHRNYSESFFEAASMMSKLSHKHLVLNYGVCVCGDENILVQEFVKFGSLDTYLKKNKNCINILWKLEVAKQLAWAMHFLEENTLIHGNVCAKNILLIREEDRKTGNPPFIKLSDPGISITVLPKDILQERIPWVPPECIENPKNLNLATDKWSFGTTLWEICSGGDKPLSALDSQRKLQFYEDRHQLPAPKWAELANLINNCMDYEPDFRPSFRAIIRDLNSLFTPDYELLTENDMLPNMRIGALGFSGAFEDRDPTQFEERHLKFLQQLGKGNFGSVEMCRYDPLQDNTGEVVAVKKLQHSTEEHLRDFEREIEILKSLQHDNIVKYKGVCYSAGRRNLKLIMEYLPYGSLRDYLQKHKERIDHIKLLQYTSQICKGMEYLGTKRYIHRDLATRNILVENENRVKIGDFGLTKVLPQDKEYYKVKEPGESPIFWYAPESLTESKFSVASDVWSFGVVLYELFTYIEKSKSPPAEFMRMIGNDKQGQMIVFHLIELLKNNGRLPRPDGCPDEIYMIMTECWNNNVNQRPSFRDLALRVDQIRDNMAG
Assay procedure: Inhibition of recombinant JAK2 after 1 hr by scintillation counter analysis in presence of gamma-[33P]ATP
Endpoint label: pKi
Numbers only, as −log10 of the molar value.

Task: Name the reported pKi value associated with the compound CC(C)(C)Nc1c(Nc2ccnc(Nc3ccc(-c4ccncc4)cc3)n2)c(=O)c1=O
Output: 6.04
